src = ChEMBL document CHEMBL1151914

# experimental_protocol: Inhibition of [3H]NMS binding to muscarinic receptor in mouse N4TG1 neuroblastoma cells
Given measured pKi, output 1.0 if it is greater than or equal to 8 and 0.0 if not.

>  <compound>
CCN1CCC(OC(=O)C(C)(c2ccccc2)c2ccccc2)CC1

>  <label_value>
1.0

$$$$
>  <compound>
CC(C)N(COC(=O)c1ccc(N)cc1)C(C)C

>  <label_value>
0.0

$$$$
>  <compound>
CN1CC2CC1C[C@H](OC(=O)C(C)(c1ccccc1)c1ccccc1)C2 (stereo partly specified)

>  <label_value>
1.0

$$$$
>  <compound>
CN1CCC(COC(=O)C(C)(c2ccccc2)c2ccccc2)CC1

>  <label_value>
0.0

$$$$
>  <compound>
CCN1CCCC(OC(=O)C(C)(c2ccccc2)c2ccccc2)C1 (stereo unspecified)

>  <label_value>
0.0

$$$$
>  <compound>
CN1C2CC[C@H]1C[C@@H](OC(=O)C(C)(c1ccccc1)c1ccccc1)C2

>  <label_value>
1.0

$$$$
>  <compound>
C[n+]1cscc1C(C)(C)OC(=O)c1ccccc1

>  <label_value>
0.0

$$$$
>  <compound>
C[N+](C)(C)CC#CC(O)(c1cccs1)C1CCCC1 (stereo unspecified)

>  <label_value>
0.0

$$$$
>  <compound>
CN1CCC2CC1C[C@@H](OC(=O)C(C)(c1ccccc1)c1ccccc1)C2 (stereo partly specified)

>  <label_value>
1.0

$$$$

====

# experimental_protocol: Inhibition of [3H]NMS binding to muscarinic receptor in mouse N4TG1 neuroblastoma cells
property_name: pKi

>  <compound>
CN1CCCCC1COC(=O)C(C)(c1ccccc1)c1ccccc1 (configuration not stated)

>  <measured_number>
6.8

$$$$
>  <compound>
CC(C(=O)OCCN1CCCC1)(c1ccccc1)c1ccccc1

>  <measured_number>
8.2

$$$$
>  <compound>
CN1CCCC1CCOC(=O)C(C)(c1ccccc1)c1ccccc1 (configuration not stated)

>  <measured_number>
8

$$$$
>  <compound>
CCN1CCC(COC(=O)C(C)(c2ccccc2)c2ccccc2)CC1

>  <measured_number>
6.9

$$$$
>  <compound>
CCN(CC)CCOC(=O)C(C)(c1ccccc1)c1ccccc1

>  <measured_number>
8.2

$$$$
>  <compound>
CC[N+]1(CCOC(=O)C(CO)c2ccccc2)CCCCC1 (configuration not stated)

>  <measured_number>
8.7

$$$$
>  <compound>
CN1CCCC(COC(=O)C(C)(c2ccccc2)c2ccccc2)C1 (configuration not stated)

>  <measured_number>
7.8

$$$$
>  <compound>
CN1[C@@H]2CC[C@H]1C[C@@H](OC(=O)C(CO)c1ccccc1)C2 (some centres not stated)

>  <measured_number>
8.4

$$$$
>  <compound>
CN1CCC(OC(=O)C(CO)c2ccc(C(F)(F)F)cc2)CC1 (configuration not stated)

>  <measured_number>
7.7

$$$$
>  <compound>
CN1CCC(OC(=O)C(C)(c2ccccc2)c2ccccc2)C1 (configuration not stated)

>  <measured_number>
7.8

$$$$
>  <compound>
C[N+](C)(C)CCOC(=O)C(c1ccccc1)c1ccccc1

>  <measured_number>
7.1

$$$$
>  <compound>
CN1CCC(OC(=O)C(C)(c2ccccc2)c2ccccc2)CC1

>  <measured_number>
8.8

$$$$
